system: CP217; experiment: qHTS profiling for inhibitors of Plasmodium falciparum proliferation (AID 504749); further: nearly all actives have a fitted effect of over 60% in size; details: P. falciparum in erythrocytes, SYBR Green DNA, 72 h; series mostly up to 28.7 µM
Records with an inconclusive call do not appear. The source made the active and inactive calls. The call rests on the fitted dose curve; in most records, active means well fitted inhibition curve with a large enough effect; inconclusive means small, poorly fitted or top-dose-only effect; inactive means flat fitted curve, though single readings scatter.
// allowed return values: True (active), False (inactive)

molecule: c1cnc(N2CCN(Cc3ccc4c(c3)OCO4)CC2)nc1
classification: False

Which outcome was assigned to CN(C)C/C=C(/c1ccc(Br)cc1)c1cccnc1 in this test? False

Per the records of this test, what outcome belongs to CCNC(=O)N1CCN(CCCC(c2ccc(F)cc2)c2ccc(F)cc2)CC1 ? True

What is the recorded call for this molecule in the test? Cc1nc2ccccn2c(=O)c1CCN1CCC(C(=O)c2ccc(F)cc2)CC1 False

Dear colleague, could you share the recorded outcome for COc1cc2c(cc1OC)-c1cc(=Nc3c(C)cc(C)cc3C)n(C)c(=O)n1CC2 when you have a moment? True

----------
test system: CRL-7250; assay: Cytotoxic Profiling of Annotated Libraries Using Quantitative High-Throughput Screening (AID 1296008); conditions: Five cell lines viability, CellTiter-Glo ATP luminescence, 48-72 h; stronger effect = lower value; further: on the % scale 0 is the no-effect control and ±100 the full control effect; nearly all actives have a fitted effect of over 60% in size
Records with an inconclusive call do not appear.
Overview of recorded max response for various molecules
// units = %; emit number, no label

Consider the following illustrative entries.
molecule: CNC1(C)C2CCC(C2)C1(C)C (configuration not stated)
readout-units: %
max response: -2.13
//
molecule: C[C@]12CC[C@@H]3c4ccc(O)cc4C[C@@H](CCCCCCCCCS(=O)CCCC(F)(F)C(F)(F)F)[C@H]3[C@@H]1CC[C@@H]2O (some centres not stated)
readout-units: %
max response: -49.4
//
molecule: CCCC(C(=O)OCCN(CC)CC)(c1ccccc1)c1ccccc1
readout-units: %
max response: -17.9

According to the records, this molecule CC(C)(Oc1ccc(CCNC(=O)c2ccc(Cl)cc2)cc1)C(=O)O displays max response of -10.1

Notebook: COc1ccc(CN(CCN(C)C)c2ccccn2)cc1 , max response read as 1.58

The recorded max response for CC(C)(C)NCC(O)c1cc(O)cc(O)c1 (configuration not stated) is -15.1

Noted for CO[C@@]1(NC(=O)CSCC#N)C(=O)N2C(C(=O)O)=C(CSc3nnnn3C)CS[C@@H]21 : its max response reads 2.03

Kindly note the recorded max response for O=C(O)CCCCCCCC(=O)O , which is -17.5

Notebook: C[N+](C)(C)CCOC(N)=O , max response read as 1.41

Per the records, this molecule ( NC(=O)c1ncn([C@@H]2O[C@H](CO)[C@@H](O)[C@H]2O)c1O ) has max response equal to -24.9

Lab book: max response of c1ccc2c(c1)CCCC2C1=NCCN1 (configuration not stated) noted as 0.704

max response measured on C[C@H](CS)C(=O)N1CCC[C@H]1C(=O)O = 1.04

----------
Test: Cell Viability qHTS for small molecule stabilizers of the endoplasmic reticulum resident proteome (AID 1508629);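 further: human SH-SY5Y neuroblastoma cells carrying the GLuc-SERCaMP reporter; compound exposure about 46 h in total before the viability read; on the % scale 0 is the no-effect control and ±100 the full control effect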
Settings: cell viability counter-screen, 100 nM thapsigargin for final 4 h
Source text: Assay Provider: Brandon K. Harvey Ph.D. National Institute on Drug Abuse, National Institutes of Health, Baltimore, MD Endoplasmic reticulum (ER) dysregulation is associated with human pathologies including neurodegenerative, cardiovascular, muscular, and diabetic conditions. […] To identify such compounds, we performed a quantitative high-throughput screen (qHTS) using the SERCaMP assay, which monitors secretion of ER resident proteins triggered by calcium depletion. […]
Records with an inconclusive call do not appear.
readout: max response (%)
Expressed in %, but write only the number.

Past entries and their recorded results:
compound: Cc1nc2sccn2c(=O)c1CCN1CCC(=C(c2ccc(F)cc2)c2ccc(F)cc2)CC1
endpoint-value: -2.38
//
compound: NC(=Nc1ccccc1)Nc1ccccc1
endpoint-value: 21.8

Just so you know, measured max response for CCc1cccc(N(C)C(N)=Nc2cccc3ccccc23)c1 came out at -28.6

Given item CN(C)CCCN1c2ccccc2Sc2ccccc21 , the value recorded as its max response is -13.5

# max response of COC(=O)[C@@H](N)Cc1ccc(O)c(O)c1 = -5.59

Quick note, max response for CCOC(=O)c1cnc2c(cnn2CC)c1NN=C(C)C landed at 4.21

Recorded result, OCCN1CCN(CCCN2c3ccccc3C=Cc3ccccc32)CC1 , max response: -5.61

Recorded result, CN(C)C/C=C(/c1ccc(Br)cc1)c1cccnc1 , max response: 4.56

Lab book: max response of O=C(CCCN1CCC(O)(c2cccc(C(F)(F)F)c2)CC1)c1ccc(F)cc1 noted as -8.14

Field max response (entry OC(CCN1CCCCC1)(c1ccccc1)C1CCCCC1 (stereo unspecified) ) reads 13.7

max response for O=C(O)CN(CCN(CC(=O)O)CC(=O)O)CCN(CC(=O)O)CC(=O)O is 25

----------
Test system: C33A
Assay: Primary qHTS to identify gynecologic anti-cancer compounds using libraries of approved drugs and bioactive compounds (AID 1345084); further: on the % scale 0 is the no-effect control and ±100 the full control effect; nearly all actives have a fitted effect of over 55% in size
Conditions: Gynecologic cancer cell panel viability, ATPlite luminescence, 48 h; series mostly up to 57.5 µM
Source text: National Center for Advancing Translational Sciences [NCATS] Assay Overview: Chemotherapeutic drug responses vary from cancer to cancer and from patient to patient. […] ATPlite is a luminescence based assay reliant on the conversion of a luciferase substrate to light in the presence of ATP. As a cytotoxic compound will suppress growth and decrease the number of cells, the concentration of ATP will decrease, and less light signal will be detected in the well. […]
Records with an inconclusive call do not appear. Activity calls are given as the source filed them. Calls follow the shape of the dose curve; as a rule, active = well fitted cell-killing curve with a large enough effect; inconclusive = small, poorly fitted or top-dose-only effect, or effect the other way; inactive = flat fitted curve, though single readings scatter.
Pick one and only one: Yes (active), No (inactive)

Study these solved cases before continuing.
compound: CCCCOCCOCCOCc1cc2c(cc1CCC)OCO2
measurement-target: C33A
classification: No

compound: c1ccc2c(c1)CCCC2C1=NCCN1 (centres undefined)
measurement-target: C33A
classification: No

compound: C[C@]12CC[C@@H]3c4ccc(O)cc4C[C@@H](CCCCCCCCCS(=O)CCCC(F)(F)C(F)(F)F)[C@H]3[C@@H]1CC[C@@H]2O (some centres undefined)
measurement-target: C33A
classification: No

compound: CNCCCN1c2ccccc2CCc2ccccc21
measurement-target: C33A
classification: No

Would you mind telling me which call this test gave Nc1c2c(nc3ccccc13)CCCC2O (centres undefined) ? No

Which outcome did this test record for the compound COc1ccc([C@@H]2Sc3ccccc3N(CCN(C)C)C(=O)[C@@H]2OC(C)=O)cc1 ? No

Please state the recorded outcome for this compound: Cc1scc2c1N(C(=O)CN1CCN(C)CC1)c1ccccc1NC2=O No

----------
molecular target: Rap guanine nucleotide exchange factor 4 (Homo sapiens); experiment: Confirmatory qHTS for antagonist of cAMP-regulated guanine nucleotide exchange factor 4 (EPAC2) (AID 1645885); settings: EPAC2 Rap1B-BODIPY-GDP exchange fluorescence, biochemical; series mostly up to 114 µM; further: nearly all actives have a fitted effect of over 25% in size
Records with an inconclusive call do not appear. Activity calls are given as the source filed them. Calls come from the whole dose curve; as a rule, active = well fitted inhibition curve with a large enough effect; inconclusive = small, poorly fitted or top-dose-only effect; inactive = no such curve, though single readings can be large or run the other way.
# output must be one of active, inactive

compound: CC(=O)[C@]1(O)Cc2c(O)c3c(c(O)c2[C@@H](O[C@H]2C[C@H](N)[C@H](O)[C@H](C)O2)C1)C(=O)c1ccccc1C3=O
classification: inactive
--
compound: Cc1nc2sccn2c(=O)c1CCN1CCC(=C(c2ccc(F)cc2)c2ccc(F)cc2)CC1
classification: active

Could you kindly confirm the outcome this assay logged for CCn1ccnc1CC1COc2ccccc2O1 (stereo not given) ? active

Which result was noted for this compound in the test: Cc1cccc(C)c1NC(=O)C(C)N (stereo not given) inactive

Kindly provide the recorded test outcome for the following compound: COc1cc(Cc2cnc(N)nc2N)cc(OC)c1OC inactive

----------
test system: PC15; assay: qHTS profiling for inhibitors of Plasmodium falciparum proliferation (AID 504749); further: nearly all actives have a fitted effect of over 60% in size; settings: P. falciparum in erythrocytes, SYBR Green DNA, 72 h; series mostly up to 28.7 µM
Records with an inconclusive call do not appear. The source made the active and inactive calls. Calls follow the shape of the dose curve; as a rule, active = well fitted inhibition curve with a large enough effect; inconclusive = small, poorly fitted or top-dose-only effect; inactive = flat fitted curve, though single readings scatter.
Select the matching outcome among 1 (yes) for active, 0 (no) for inactive

compound: COc1cc2c(cc1OC)-c1cc(=Nc3c(C)cc(C)cc3C)n(C)c(=O)n1CC2
classification: 1 (yes)
--
compound: CCCOc1ccccc1-c1nc2n[nH]nc2c(=O)[nH]1
classification: 0 (no)
--
compound: Cc1scc2c1N(C(=O)CN1CCN(C)CC1)c1ccccc1NC2=O
classification: 0 (no)
--
compound: CN(C)C(=O)Oc1ccc[n+](C)c1
classification: 0 (no)
--
compound: Cc1nnc(SCC2=C(C(=O)O)N3C(=O)[C@@H](NC(=O)Cn4cnnn4)[C@H]3SC2)s1
classification: 0 (no)
--
compound: CSc1ccc(C(=O)c2[nH]c(=O)[nH]c2C)cc1
classification: 0 (no)
--
compound: CCn1ccnc1CC1COc2ccccc2O1 (stereo not given)
classification: 0 (no)
--
compound: c1cnc(N2CCN(Cc3ccc4c(c3)OCO4)CC2)nc1
classification: 0 (no)

What was the test verdict on NS(=O)(=O)c1cc2c(cc1Cl)NC(C1CC3C=CC1C3)NS2(=O)=O (stereo not given) ? 0 (no)

Fill in: this test's call for CCN(CC)CCOCCOC(=O)C1(c2ccccc2)CCCC1 is ___ 1 (yes)

Short answer needed: outcome of this test for Cc1ccc(Cl)c(Nc2ccccc2C(=O)O)c1Cl ? 0 (no)

For this compound, state the assay outcome: Nc1ncn([C@@H]2O[C@H](CO)[C@@H](O)[C@H]2O)c(=O)n1 0 (no)
